Data origin: BindingDB's records for doi:10.1021/jm000209n

Reported EC50 values for a set of compounds
test: Tested in vitro against HIV-1 MDR using MAGI assay
measured.property: EC50 (nM)

| compound.structure.string | unit.label | measurement |
| --- | --- | --- |
| C#C[C@]1(CO)O[C@@H](n2cc(F)c(N)nc2=O)C[C@H]1O | nM | 9 |
| C#C[C@]1(CO)O[C@@H](n2cnc3c(=O)[nH]cnc32)C[C@H]1O | nM | 650 |
| C#C[C@]1(CO)O[C@@H](n2cc(I)c(=O)[nH]c2=O)C[C@H]1O | nM | 620 |
| C#C[C@]1(CO)O[C@@H](n2ccc(N)nc2=O)C[C@H]1O | nM | 1.5 |
| C#C[C@]1(CO)O[C@@H](n2cnc3cncnc32)C[C@H]1O | nM | 145000 |
| C#C[C@]1(CO)O[C@@H](n2cc(C)c(=O)[nH]c2=O)C[C@H]1O | nM | 240 |
| C#C[C@]1(CO)O[C@@H](n2cnc3c(N)nc(N)nc32)C[C@H]1O | nM | 1.3 |
| C#C[C@]1(CO)O[C@@H](n2cc(C)c(N)nc2=O)C[C@H]1O | nM | 4.5 |
| Cc1cn([C@H]2C[C@H](N=[N+]=[N-])[C@@H](CO)O2)c(=O)[nH]c1=O | nM | 24900 |
